melting point reference
Give the quantity in °C, number only.

MOL SMILES	melting point [°C]
Cc1c2n(c3c(-c4cccc(C#N)c4)cc(C#N)cc13)CCNC2=O	266
N#Cc1cc(-c2cc(F)c(F)c(F)c2)c2c(c1)cc1n2CCCNC1=O	248.5
COc1ccc(-c2cc(F)c(F)c3cc4n(c23)CCNC4=O)cc1	227.5
Cc1c2n(c3c(-c4cccc(Cl)c4)cc(C#N)cc13)CCNC2=O	254
Cc1c2n(c3c(-c4ccc(Cl)c(C(F)(F)F)c4)cc(Cl)cc13)CCNC2=O	268
Cc1cc(-c2cc(Cl)cc3c(C)c4n(c23)CCNC4=O)ccc1F	235.5

Problem: Recorded melting point for `N#Cc1cc(-c2ccc(Cl)cc2F)c2c(c1)cc1n2CCCNC1=O` , please?
Result: 217.5

Problem: Return reported melting point; argument: `Cc1c2n(c3c(-c4ccc(OC(F)(F)F)cc4)cc(F)cc13)CCNC2=O`
Result: 162

Problem: Name the reported melting point value associated with the compound `Cc1c2n(c3c(-c4cccc(Cl)c4)cc(F)cc13)CCNC2=O`
Result: 182

Problem: Using the record for `N#Cc1cc(-c2ccnc(F)c2)c2c(c1)cc1n2CCNC1=O` , report its melting point.
Result: 289

Problem: Field request: melting point | item: `Cc1c2n(c3c(-c4ccc(C(F)(F)F)cc4)cc(C#N)cc13)CCCNC2=O`
Result: 252
